system: U2OS; experiment: Incucyte cell viability with U2OS; type: toxicity, cell-based; conditions: human, 0 h, 10 µM, compound concentration 10 uM, replicate number 1; note: unitless GR value; below 1 slowed growth and below 0 cell loss
quantityKind: Growth Rate
The reply should be a number, written without any unit.

Value lookup for Growth Rate; key = CC(=O)O.NCCCc1c(C(=O)O)[nH]c2ccc(C(=O)Nc3ccccc3)cc12
0.53

Value lookup for Growth Rate; key = C[C@@H]1Cc2c([nH]c3ccccc23)[C@@H](c2c(F)cc(/C=C/C(=O)O)cc2F)N1CC(C)(C)F
0.01

Value lookup for Growth Rate; key = O[C@]1(C(F)(F)F)CCCC[C@H]1Nc1ccc(F)cc1
-0.18

Value lookup for Growth Rate; key = Cc1cc(O)c(-c2ccc([C@@H](C)CN(C)C)cc2)c2c1[nH]c(=O)c1sccc12
-0.87

Value lookup for Growth Rate; key = c1cnc2cc3c(cc2n1)[C@@H]1CNC[C@H]3C1
0.97

Value lookup for Growth Rate; key = CC(C)S(=O)(=O)c1ccccc1Nc1nc(N[C@@H]2CCCN(CCCCCCCNC(=O)COc3cccc4c3C(=O)N(C3CCC(=O)NC3=O)C4=O)C2)ncc1Cl (some centres undefined)
-1

Value lookup for Growth Rate; key = COc1cc(Nc2cnc(C#N)c(O[C@H](C)CN(C)C)n2)ncc1-c1cnn(C)c1
-1

Value lookup for Growth Rate; key = CC(C)n1nc(-c2cnc(N)c(OC(F)(F)F)c2)cc1[C@H]1[C@@H]2CN(C3COC3)C[C@@H]21
0.6

Value lookup for Growth Rate; key = O=C(O)c1cc(-c2ccccc2)ccc1O
-0.47

====

test system: HEK-293T; assay: Incucyte cell viability with HEK293T; format: toxicity, cell-based; conditions: human, 0 h, 10 µM, compound concentration 10 uM, replicate number 2; note: unitless GR value; below 1 slowed growth and below 0 cell loss
Returns: string. Value is fulfilled if measured Growth Rate is below -0.1, and not fulfilled if it is greater than or equal to it.

Would you kindly verify if Growth Rate of CNS(=O)(=O)c1ccc(N(C)C)c(Nc2ncnc3cc(OC)c(OC)cc23)c1 is strictly less than -0.1?
not fulfilled

Would you kindly verify if Growth Rate of Cl.NCC(O)c1ccc(O)cc1 (centres undefined) [OCTOPAMINE HYDROCHLORIDE] is strictly less than -0.1?
not fulfilled

Would you kindly verify if Growth Rate of O=C1NC(c2cccc([N+](=O)[O-])c2)=CCN1c1ccccc1O is strictly less than -0.1?
not fulfilled

Would you kindly verify if Growth Rate of O=C1Nc2ccc(I)cc2/C1=C/c1cc(Br)c(O)c(Br)c1 is strictly less than -0.1?
not fulfilled

Would you kindly verify if Growth Rate of CCO[C@@H](Cc1ccc(OCCc2ccc(OS(C)(=O)=O)cc2)cc1)C(=O)O is strictly less than -0.1?
fulfilled

Would you kindly verify if Growth Rate of C[C@H](NC(=O)c1cc(Cl)ccc1Oc1ccc(F)cc1)c1ccc(C(=O)O)cc1 is strictly less than -0.1?
not fulfilled

Would you kindly verify if Growth Rate of COc1cc(F)ccc1-c1cc(Nc2cc(CS(C)(=N)=O)ccn2)ncc1F (centres undefined) is strictly less than -0.1?
not fulfilled

Would you kindly verify if Growth Rate of CCn1c(=O)c2c(C)c(C(=O)N3CCC(O)CC3)sc2n(CCC(F)(F)F)c1=O is strictly less than -0.1?
not fulfilled

Would you kindly verify if Growth Rate of COc1ccccc1S(=O)(=O)Nc1ccc2c(c1)CN(C)C(=O)N2 is strictly less than -0.1?
fulfilled

Would you kindly verify if Growth Rate of C/C(=C\C(=O)Nc1ccccc1C(=O)[O-])c1ccc2ccccc2c1.[Na+] is strictly less than -0.1?
not fulfilled

Would you kindly verify if Growth Rate of OC(c1ccc(-c2ccc(CN3CCN(Cc4ccncc4)CC3)cc2)c(F)c1)(C(F)(F)F)C(F)(F)F is strictly less than -0.1?
fulfilled

Would you kindly verify if Growth Rate of CC(=O)Nc1ncc(CN2CCC[C@H](Cc3cc(C)nc(C)c3)C2)s1 is strictly less than -0.1?
fulfilled

Would you kindly verify if Growth Rate of Cn1ccc(Cn2cnc(-c3ccc(F)cc3)c2-c2ccnc3[nH]ccc23)n1 is strictly less than -0.1?
not fulfilled

Would you kindly verify if Growth Rate of COC[C@@H](CC(C)C)NC1=N/C(=C\c2ccc3ncsc3c2)C(=O)N1C is strictly less than -0.1?
not fulfilled

Would you kindly verify if Growth Rate of NCCCNCCCCNCCC(=O)NCCCCCNC(=O)[C@H](CC(N)=O)NC(=O)Cc1ccc(O)cc1O is strictly less than -0.1?
fulfilled

Would you kindly verify if Growth Rate of CCN(C(=O)c1cc(F)ccc1Oc1cncnc1N1CC2(CCN(C[C@H]3CC[C@H](NS(=O)(=O)CC)CC3)CC2)C1)C(C)C is strictly less than -0.1?
not fulfilled

Would you kindly verify if Growth Rate of CN(C)[C@H]1CC[C@H](Nc2ncc3ncnc(Nc4ccc(F)c(Cl)c4)c3n2)CC1 is strictly less than -0.1?
fulfilled

Would you kindly verify if Growth Rate of COc1ccc(-c2coc3cc(O)cc(O)c3c2=O)cc1 is strictly less than -0.1?
not fulfilled

Would you kindly verify if Growth Rate of CCNC1=N[C@@H]2[C@@H](O)[C@H](O)[C@@H](CO)O[C@@H]2S1 is strictly less than -0.1?
fulfilled

====

test system: U2OS; assay: Incucyte cell viability with U2OS; format: toxicity, cell-based; conditions: human, 12 h, 10 µM, compound concentration 10 uM, replicate number 2; note: unitless GR value; below 1 slowed growth and below 0 cell loss
Give Growth Rate for every item shown.
The reply should be a number, written without any unit.

Value lookup for Growth Rate; key = Cc1cc(OC2CCS(=O)(=O)CC2)cc(C)c1-c1cccc(COc2ccc(CCC(=O)O)c(F)c2)c1
0.91

Value lookup for Growth Rate; key = COc1ccc(Cl)cc1[C@]1(F)C(=O)Nc2cc(C(F)(F)F)ccc21 [FLINDOKALNER]
0.76

Value lookup for Growth Rate; key = CN1CCN(C(=O)Cc2ccc(N/C(=C3\C(=O)Nc4cc(Cl)ccc43)c3ccccc3)cc2)CC1
0.86

Value lookup for Growth Rate; key = Cl.NCC(O)c1ccc(O)cc1 (stereo not given) [OCTOPAMINE HYDROCHLORIDE]
0.92

Value lookup for Growth Rate; key = Cc1cn(CCN2CCN(c3ccccc3-c3cc(C#N)cc(C(=O)NCCCN4CCCC4)c3)CC2)c2ccccc12
-0.84

====

tested on: U2OS; test: Incucyte cell viability with U2OS; assay type: toxicity, cell-based; settings: human, 12 h, 10 µM, compound concentration 10 uM, replicate number 1; note: unitless GR value; below 1 slowed growth and below 0 cell loss
Could you label it MET if measured Growth Rate is 0.8 or higher, and NOT MET otherwise?

State whether the measured Growth Rate reaches 0.8, counting equality as reaching it, for CC(C)NC(=O)[C@H]1CCC[C@H]1Nc1nc(Nc2ccc(CN(C)C)cc2)ncc1Br.Cl
NOT MET

State whether the measured Growth Rate reaches 0.8, counting equality as reaching it, for N#Cc1cccc(-c2nc(-c3cccnc3)no2)c1
NOT MET

State whether the measured Growth Rate reaches 0.8, counting equality as reaching it, for O=C(Nc1ccc(-n2nc(C(F)(F)F)cc2C(F)(F)F)cc1)c1ccncc1F
NOT MET

State whether the measured Growth Rate reaches 0.8, counting equality as reaching it, for CC(C)(C)c1cnc(CSc2cnc(NC(=O)C3CCNCC3)s2)o1 [BMS-387032]
NOT MET

State whether the measured Growth Rate reaches 0.8, counting equality as reaching it, for N#CN1CC[C@@H](C(=O)Nc2nc3c(s2)CN(C(=O)CN=[N+]=[N-])CC3)C1 [JYQ88]
MET

State whether the measured Growth Rate reaches 0.8, counting equality as reaching it, for CN(C)C/C=C/C(=O)Nc1cccc(C(=O)Nc2ccc(Nc3nccc(-c4cccnc4)n3)cc2)c1
MET

State whether the measured Growth Rate reaches 0.8, counting equality as reaching it, for CN1CCN(c2ccnc(NCCc3ccccc3)n2)CC1 [TP-040n]
MET

State whether the measured Growth Rate reaches 0.8, counting equality as reaching it, for COc1cc2c(NC3CCN(C(C)C)CC3)nc(C3CCCCC3)nc2cc1OCCCN1CCCC1
NOT MET

State whether the measured Growth Rate reaches 0.8, counting equality as reaching it, for COCCNc1nc2ccc(C#CC3(O)CCCCC3)cc2n1-c1ccnc(N)n1
NOT MET

State whether the measured Growth Rate reaches 0.8, counting equality as reaching it, for CC(=O)N(CCN(C)C)c1ccc(N/C(=C2\C(=O)Nc3cc(Cl)ccc32)c2ccccc2)cn1
NOT MET

State whether the measured Growth Rate reaches 0.8, counting equality as reaching it, for Cn1c(C2(NC(=O)c3ccc(NCC4CCCCC4)nc3)CCC2)nc2ccc(/C=C/C(=O)O)cc21 [BI 7656]
MET

State whether the measured Growth Rate reaches 0.8, counting equality as reaching it, for CC(C)C[C@H](NC(=O)c1cc2ccccc2s1)C(=O)N1CCN(C(=O)[C@H](CO)NS(=O)(=O)c2ccc(Cl)cc2Cl)CC1
MET

State whether the measured Growth Rate reaches 0.8, counting equality as reaching it, for Oc1cc2c(cc1O)CN(C(=S)NCCc1ccc(Cl)cc1)CCC2 [CAPSAZEPINE]
MET

State whether the measured Growth Rate reaches 0.8, counting equality as reaching it, for O=c1[nH]c(CS[C@H]2CC[C@H](O)CC2)nc2cc(OCC3CC3)cc(F)c12
NOT MET

State whether the measured Growth Rate reaches 0.8, counting equality as reaching it, for O=C(Nc1c(-c2cccs2)nc2ccc(Cl)cn12)c1ccc(Cl)cc1
NOT MET

State whether the measured Growth Rate reaches 0.8, counting equality as reaching it, for CC(=O)NCC(=O)N1[C@@H]2CC[C@H]1c1ccc(Nc3ncc(C(F)(F)F)c(NC4CCC4)n3)cc12 [PF-03814735]
NOT MET

State whether the measured Growth Rate reaches 0.8, counting equality as reaching it, for CC(C)(O)[C@H]1CC[C@H](Nc2ccc3ncc(-c4cccc(C(F)(F)F)c4)n3n2)CC1 [NUVISERTIB]
NOT MET

Data origin, for the record: ChEMBL document CHEMBL5303304
